FYI, the data here is from patent US20260365653A1.

Study System: mutEGFR (D770_N771insNPG, T790) (Homo sapiens, UniProt P00533, INS770NPG/T790M)
Construct: exact insNPG construct not described; in-house EGFR proteins were N-terminal GST fusions from baculovirus/insect cells (borders R669-A1210 given only for WT, insSVD, insASV)
Sequence (P00533 with tags, fused parts or gaps INS770NPG/T790M limits assumed): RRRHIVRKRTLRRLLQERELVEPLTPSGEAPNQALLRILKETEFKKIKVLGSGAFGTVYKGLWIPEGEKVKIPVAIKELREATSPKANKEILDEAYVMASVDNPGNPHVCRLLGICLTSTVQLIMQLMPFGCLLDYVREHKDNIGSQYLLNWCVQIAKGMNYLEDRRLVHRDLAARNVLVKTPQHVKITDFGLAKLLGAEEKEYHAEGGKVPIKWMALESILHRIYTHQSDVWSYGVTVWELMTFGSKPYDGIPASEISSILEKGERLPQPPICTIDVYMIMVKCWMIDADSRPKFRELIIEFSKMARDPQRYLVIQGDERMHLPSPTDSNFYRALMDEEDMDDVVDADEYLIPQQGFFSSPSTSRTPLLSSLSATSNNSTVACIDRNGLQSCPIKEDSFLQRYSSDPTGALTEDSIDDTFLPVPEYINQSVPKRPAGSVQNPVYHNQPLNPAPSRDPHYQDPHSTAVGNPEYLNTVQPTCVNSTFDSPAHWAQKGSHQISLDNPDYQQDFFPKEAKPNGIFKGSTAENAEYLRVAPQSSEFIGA
Assay Summary: mutEGFR (D770_N771insNPG, T790) kinase assay
Assay type: biochemical
Condition Details: Table 2a, D770_N771insNPG
# reported pIC50; entries follow
Lab note — pIC50 values are minus log10 of concentrations in M.

Solved entries:
[[record]]
compound = "C=CC(=O)N1Cc2c(-c3ccncc3)c(-c3ccc(Cl)cc3)nn2C[C@H]1C"
result = 8.71

[[record]]
compound = "C=CC(=O)N1CCn2nc(-c3ccc(OC(F)F)cc3)c(-c3ccncc3)c2C1"
result = 7.86

[[record]]
compound = "C=C(F)C(=O)N1Cc2c(-c3ccncc3)c(-c3ccc4ccsc4c3)nn2CC1C (racemic)"
result = 8.66

[[record]]
compound = "C=CC(=O)N1Cc2c(-c3ccncc3)c(-c3ccc4sccc4c3)nn2C(C)C1 (racemic)"
result = 9.82

[[record]]
compound = "C=CC(=O)N1CCn2nc(-c3ccc(C(F)F)cc3)c(-c3ccncc3)c2C1"
result = 8.10


Qu. Field request: pIC50 | item: C=CC(=O)N1CCn2nc(-c3ccc(Cl)cc3F)c(-c3c(F)cnc4[nH]ccc34)c2C1
Ans. 7.59

Qu. Field request: pIC50 | item: O=C(/C=C/CN1CCCCC1)N1CCn2nc(-c3ccc(Cl)cc3)c(-c3ccncc3)c2C1
Ans. 9.21

Qu. Field request: pIC50 | item: C=CC(=O)N1Cc2c(-c3ccncc3)c(-c3ccc4ccccc4c3)nn2CC1C (racemic)
Ans. 9.79

Qu. Field request: pIC50 | item: COC1CCN(C/C=C/C(=O)N2CCn3nc(-c4ccc(Cl)cc4)c(-c4ccncc4)c3C2)CC1
Ans. 9.16

Qu. Field request: pIC50 | item: C=CC(=O)N1Cc2c(-c3ccncc3)c(-c3ccc(F)cc3)nn2C(C(=O)N(C)C)C1 (single isomer, unassigned; isomer 1)
Ans. 7.08

====

Study System: mutEGFR (D770_N771insSVD) (Homo sapiens, UniProt P00533, DUP768-770)
Construct: GST-EGFR #3 (SVD between D770 and N771); made in house; host or cells: Sf9 insect cells (baculovirus)
Sequence (P00533 with tags, fused parts or gaps DUP768-770): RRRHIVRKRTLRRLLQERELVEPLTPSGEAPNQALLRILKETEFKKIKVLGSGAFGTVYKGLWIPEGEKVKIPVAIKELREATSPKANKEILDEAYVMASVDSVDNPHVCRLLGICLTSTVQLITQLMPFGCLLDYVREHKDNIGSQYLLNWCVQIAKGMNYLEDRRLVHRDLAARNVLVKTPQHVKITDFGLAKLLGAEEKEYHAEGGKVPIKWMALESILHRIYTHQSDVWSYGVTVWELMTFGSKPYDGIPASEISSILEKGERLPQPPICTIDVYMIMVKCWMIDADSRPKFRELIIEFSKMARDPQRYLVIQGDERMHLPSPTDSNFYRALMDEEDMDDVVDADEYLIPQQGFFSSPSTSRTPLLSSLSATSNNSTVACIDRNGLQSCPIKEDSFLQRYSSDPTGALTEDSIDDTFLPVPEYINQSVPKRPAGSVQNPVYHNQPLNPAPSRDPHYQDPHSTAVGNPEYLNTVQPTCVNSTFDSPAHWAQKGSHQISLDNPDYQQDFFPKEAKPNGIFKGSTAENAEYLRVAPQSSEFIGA
Assay Summary: Exon20-Mutant-EGFR (D770_N771insSVD) kinase assay (TR-FRET)
Format: biochemical
Condition Details: mutEGFR (D770_N771insSVD) kinase assay IC50, Table 2b (from US Priority Patent Application); mutEGFR D770_N771insSVD
# reported IC50; entries follow
Use nM as the unit, but write only the number.

Solved entries:
[[record]]
compound = "CN(C)C/C=C/C(=O)N1CCn2nc(-c3ccc(F)cc3)c(-c3ccnc(NC(=O)C4CC4)c3)c2C1 [Example 8]"
result = 0.393

[[record]]
compound = "C=C(C)C(=O)N1CCn2nc(-c3ccc(F)cc3)c(-c3ccncc3)c2C1 [Example 24]"
result = 1150


Moving on to another compound below.
Qu. Field request: IC50 | item: CN(C)C/C=C/C(=O)N1CCn2nc(-c3ccc(F)cc3)c(-c3ccnc(Nc4ccccc4)c3)c2C1 [Example 21]
Ans. 1.17

====

# reported IC50; entries follow
Study System: mutEGFR (D770_N771insSVD) (Homo sapiens, UniProt P00533, DUP768-770)
Construct: GST-EGFR #3 (SVD between D770 and N771); made in house; host or cells: Sf9 insect cells (baculovirus)
Assay Summary: Exon20-Mutant-EGFR (D770_N771insSVD) kinase assay (TR-FRET)
Type: biochemical
Condition Details: mutEGFR (D770_N771insSVD) kinase assay IC50, Table 2a; D770_N771insSVD; 2 mM ATP
Use pM as the unit, but write only the number.

Solved entries:
[[record]]
compound = "C=CC(=O)N1CCn2nc(-c3ccc(C)cc3O)c(-c3ccncc3)c2C1 [Example 113]"
units_text = "pM"
result = 1760

[[record]]
compound = "O=C(/C=C/CN1CCOCC1)N1CCn2nc(-c3ccc(Cl)cc3)c(-c3ccncc3)c2C1 [Example 165]"
units_text = "pM"
result = 631

[[record]]
compound = "C=CC(=O)N1CCn2nc(-c3ccc4cc[nH]c4c3)c(-c3ccncc3)c2C1C (racemic) [Example 243]"
units_text = "pM"
result = 395


Moving on to another compound below.
Qu. Field request: IC50 | item: C=CC(=O)N1CCn2nc(-c3ccc(Cl)c(CC)c3)c(-c3ccncc3)c2C1 [Example 190]
Ans. 1030

====

System: BA/F3 (insSVD) cells
Assay Summary: Ba/F3-EGFR-insSVD cell survival assay (Cell Titer-Glo)
Format: cell-based
Condition Details: Mus musculus, BaF3, 48 h, Table 3a, cell survival, Cell Titer-Glo, with 10 ng/ml EGF, without IL-3
# reported IC50; entries follow
The reply should consist of the numeric value with the unit placed after it.

Solved entries:
[[record]]
molecule = "COc1ccc(-c2nn3c(c2-c2ccncc2)CN(C(=O)/C=C/CN(C)C)CC3)c(F)c1 [Example 160]"
measurement_kind = "IC50"
result = "973 nM"

[[record]]
molecule = "C=CC(=O)N1CCn2nc(-c3ccc(C(F)(F)F)cc3)c(-c3ccnc4[nH]cc(C)c34)c2C1C (single isomer, unassigned; isomer 1) [Example 259]"
measurement_kind = "IC50"
result = "296 nM"


Qu. Field request: IC50 | item: COc1ccccc1-c1nn2c(c1-c1ccncc1)CN(C(=O)/C=C/CN(C)C)CC2 [Example 28]
Ans. 3980 nM

Qu. Field request: IC50 | item: C=CC(=O)N1CCn2nc(-c3cccc(CO)c3)c(-c3ccncc3)c2C1 [Example 121]
Ans. 213 nM

====

Study System: mutEGFR (D770_N771insNPG, T790) (Homo sapiens, UniProt P00533, INS770NPG/T790M)
Construct: exact insNPG construct not described; in-house EGFR proteins were N-terminal GST fusions from baculovirus/insect cells (borders R669-A1210 given only for WT, insSVD, insASV)
Assay Summary: mutEGFR (D770_N771insNPG, T790) kinase assay
Type: biochemical
Condition Details: Table 2a, D770_N771insNPG
Measurement Kind: IC50
The reply should consist of the numeric value with the unit placed after it.

[[record]]
compound = "C=CC(=O)N1Cc2c(-c3ccncc3)c(-c3ccc(OC)cc3)nn2C(C)C1 (single isomer, unassigned; isomer 2) [Example 275]"
measurement_kind = "IC50"
result = "1.22 nM"

[[record]]
compound = "C=CC(=O)N1CCn2nc(Nc3ccc(OC)c(F)c3)c(-c3ccncc3)c2C1"
measurement_kind = "IC50"
result = "7960 nM"

[[record]]
compound = "Cc1c[nH]c2nccc(-c3c(-c4ccc(C(F)(F)F)cc4)nn4c3CN(C(=O)/C=C/CN(C)C)[C@H](C)C4)c12"
measurement_kind = "IC50"
result = "3580 nM"

[[record]]
compound = "Cc1ccc(-c2nn3c(c2-c2ccnc4[nH]ccc24)CN(C(=O)/C=C/CN(C)C)CC3)c(F)c1"
measurement_kind = "IC50"
result = "57.1 nM"

[[record]]
compound = "O=C(/C=C/CN1CC(F)(F)C1)N1CCn2nc(-c3ccc(F)cc3)c(-c3ccncc3)c2C1"
measurement_kind = "IC50"
result = "50.6 nM"

[[record]]
compound = "C=CC(=O)N1CCn2nc(-c3ccc(Cl)c(CC)c3)c(-c3ccncc3)c2C1"
measurement_kind = "IC50"
result = "3.03 nM"


Moving on to another compound below.
Qu. Field request: IC50 | item: C=CC(=O)N1CCn2nc(-c3ccc(C)cc3F)c(-c3ccnc4[nH]ccc34)c2C1
Ans. 22.8 nM

====

# reported IC50; entries follow
Study System: mutEGFR (D770_N771insNPG, T790) (Homo sapiens, UniProt P00533, INS770NPG/T790M)
Construct: exact insNPG construct not described; in-house EGFR proteins were N-terminal GST fusions from baculovirus/insect cells (borders R669-A1210 given only for WT, insSVD, insASV)
Assay Summary: mutEGFR (D770_N771insNPG, T790) kinase assay
Type: biochemical
Condition Details: Table 2a, D770_N771insNPG
Use nM as the unit, but write only the number.

Solved entries:
[[record]]
molecule = "C=CC(=O)N1Cc2c(-c3ccncc3)c(-c3ccc(OC)cc3)nn2CC1C (racemic)"
measurement_kind = "IC50"
result = 2.2

[[record]]
molecule = "CCN(CC)C/C=C/C(=O)N1CCn2nc(-c3ccc(F)cc3)c(-c3ccncc3)c2C1"
measurement_kind = "IC50"
result = 4.78

[[record]]
molecule = "C=CC(=O)N1CCn2nc(-c3ccc(F)c(C#N)c3)c(-c3ccncc3)c2C1"
measurement_kind = "IC50"
result = 7.03

[[record]]
molecule = "C=CC(=O)N1CCn2nc(-c3cc(Cl)ccc3F)c(-c3ccnc4[nH]cc(C)c34)c2C1"
measurement_kind = "IC50"
result = 61.5

[[record]]
molecule = "C=CC(=O)N1CCn2nc(-c3cccc(F)c3)c(-c3ccncc3)c2C1"
measurement_kind = "IC50"
result = 1.47

[[record]]
molecule = "C=CC(=O)N1C(C)c2c(-c3ccncc3)c(-c3ccc(Cl)cc3F)nn2C[C@@H]1C (single isomer, unassigned; isomer 2) [Example 293]"
measurement_kind = "IC50"
result = 96

[[record]]
molecule = "C=C(CN(C)C)C(=O)N1CCn2nc(-c3ccc(F)cc3)c(-c3ccncc3)c2C1"
measurement_kind = "IC50"
result = 87.6

[[record]]
molecule = "C=CC(=O)N1CCn2nc(-c3ccccc3OC)c(-c3ccncc3)c2C1"
measurement_kind = "IC50"
result = 18.3

[[record]]
molecule = "CN(C)C/C=C/C(=O)N1CCn2nc(-c3ccc(Cl)c(Cl)c3)c(-c3ccncc3)c2C1"
measurement_kind = "IC50"
result = 1.54

[[record]]
molecule = "Cc1cc(-c2nn3c(c2-c2ccncc2)CN(C(=O)/C=C/CN(C)C)CC3(C)C)ccc1Cl"
measurement_kind = "IC50"
result = 0.654


Qu. Field request: IC50 | item: C=CC(=O)N1CCn2nc(-c3ccc(C(F)(F)F)cc3F)c(-c3ccncc3)c2C1
Ans. 1.8

Qu. Field request: IC50 | item: C=CC(=O)N1CCn2nc(-c3cc4ccccc4cc3F)c(-c3ccncc3)c2C1
Ans. 0.149

Qu. Field request: IC50 | item: C=CC(=O)N1CCn2nc(-c3ccc(C(F)(F)F)cc3)c(-c3ccnc4[nH]c(C)cc34)c2C1
Ans. 3470

Qu. Field request: IC50 | item: Cc1c[nH]c2nccc(-c3c(-c4ccc(C(F)(F)F)cc4)nn4c3C(C)N(C(=O)/C=C/CN(C)C)CC4)c12 (single isomer, unassigned; isomer 2) [Example 253]
Ans. 3950

Qu. Field request: IC50 | item: O=C(/C=C/CN1CC(F)C1)N1CCn2nc(-c3ccc(Cl)cc3)c(-c3ccncc3)c2C1
Ans. 1.21
